These entries and their values trace back to patent US20140128352A1.

# Assayed Target: glycerol-3-phosphate dehydrogenase (GPDH) (Rattus norvegicus)
# Construct: The activity of GPDH in intact mitochondria (0.3 mg/mL) was measured; from tissue; host or cells: rat skeletal muscle mitochondria (Wistar, Harlan Laboratories)
# Sequence (P35571 43-727): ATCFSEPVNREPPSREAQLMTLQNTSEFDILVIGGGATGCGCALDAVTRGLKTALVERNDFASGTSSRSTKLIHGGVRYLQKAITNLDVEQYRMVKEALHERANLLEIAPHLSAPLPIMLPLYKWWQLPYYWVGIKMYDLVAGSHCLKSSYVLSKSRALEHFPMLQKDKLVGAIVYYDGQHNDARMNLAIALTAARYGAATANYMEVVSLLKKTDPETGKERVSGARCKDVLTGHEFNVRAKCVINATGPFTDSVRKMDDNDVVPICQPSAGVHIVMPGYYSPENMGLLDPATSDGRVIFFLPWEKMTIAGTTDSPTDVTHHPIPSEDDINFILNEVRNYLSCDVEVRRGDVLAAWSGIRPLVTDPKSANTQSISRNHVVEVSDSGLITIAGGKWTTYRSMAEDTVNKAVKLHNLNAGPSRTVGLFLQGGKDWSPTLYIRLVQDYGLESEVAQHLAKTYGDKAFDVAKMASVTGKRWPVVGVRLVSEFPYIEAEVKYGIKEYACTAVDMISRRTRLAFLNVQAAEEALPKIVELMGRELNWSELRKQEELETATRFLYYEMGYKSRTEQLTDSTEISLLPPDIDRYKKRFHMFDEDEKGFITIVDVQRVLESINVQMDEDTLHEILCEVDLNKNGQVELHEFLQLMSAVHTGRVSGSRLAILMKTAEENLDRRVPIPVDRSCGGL
# Assay Summary: High-throughput screen: ROS production from glycerol-3-phosphate dehydrogenase (GPDH)
# Format: biochemical
# Conditions: Table 9; percent change in ROS from DMSO controls

Compound	GPDH
Cc1ccccc1NS(=O)(=O)c1ccc(C2CCCCC2)cc1 [Compound 9]	1.0
CC(C)(C)C1=NN(c2c(Cl)cc(Cl)cc2Cl)C(=O)C1 [Compound 3]	−0.1
O=[N+]([O-])c1ccc(Oc2ccc(S(=O)(=O)NC3CCCCC3)cc2)cc1 [Compound 4]	2.8
CCCCN(Cc1ccccc1)Cc1cc(Cl)cc(Cl)c1O [Compound 38]	3.7
COc1cc(CN(CCN(C)C)Cc2ccccc2)cc(OC)c1 [Compound 31]	0.5
